Experiment: NCI Yeast Anticancer Drug Screen. Data for the mec2-1 strain (AID 157)
Settings: S. cerevisiae mec2-1 strain, at 50.0 µM
Compounds without any hit were thinned out: in the full panel of roughly 79,000, 15% have a hit. Active and inactive are the calls of the source. No stated cut-off is given here; in the data, active means growth inhibition above about 70%; inactive means the rest.
One label from this list, please: active, inactive

Observe how each entry below is paired with its result.
[[record]]
molecule = "CN1C(=O)C2(Cc3cn(C45CC67SSC(CO)(C(=O)N6C4Nc4ccccc45)N(C)C7=O)c4ccccc34)SSC1(CO)C(=O)N2C (stereo not drawn)"
assigned_label = "active"

[[record]]
molecule = "CC1=CC(=O)C=CC1=O"
assigned_label = "inactive"


IN: For this molecule, state the assay outcome: CN(C/C=C/CN(C)N=O)N=O
OUT: inactive

IN: Identify the outcome logged in this assay for the molecule shown: C[C@@H](O)[C@H]1/C=C/C=C\C(=O)O[C@@H]2C[C@H]3O[C@@H]4[C@@H]5OC5(C)CCC4(COC(=O)[C@H]4O[C@]4(C)[C@@H](O)CO1)[C@]2(C)[C@]31CO1 (stereo partly drawn)
OUT: active

IN: What call does the record list for C[n+]1cccc(C2CCC[N+]2(C)C)c1 (stereo not drawn) ?
OUT: inactive

IN: I would be grateful if you could indicate the recorded call for C/C=C/CC1(c2ccccc2)C(=O)NC(=S)NC1=O .
OUT: inactive

IN: For this molecule, state the assay outcome: CCCCCCCCCC[As](=O)(O)O
OUT: inactive

IN: Assay outcome for CC(C)[S-].CC(C)[S-].[Pt+2].c1ccc([PH+](c2ccccc2)c2ccccc2)cc1.c1ccc([PH+](c2ccccc2)c2ccccc2)cc1 : what was it?
OUT: active

IN: Per the assay record, what outcome was assigned to C[N+]1([O-])[C@H]2CC(OC(=O)[C@H](CO)c3ccccc3)C[C@H]1[C@H]1O[C@H]12 (stereo partly drawn) ?
OUT: inactive

IN: What is the recorded call for this molecule in the test? CC1NC1c1ccccc1 (stereo not drawn)
OUT: inactive

IN: Per the assay record, what outcome was assigned to CCC[CH2][Sn]1([CH2]CCC)[O]CC(C)[O]1 (stereo not drawn) ?
OUT: active

IN: Tell me the recorded outcome of this test for COC1OC(CO)C(O)C(O)[CH]1[Hg][Cl] (stereo not drawn) .
OUT: active

IN: Record lookup: outcome of this test for CCCN(CCC)CC(O)c1ccc2c3c(cccc13)CC2 (stereo not drawn) ?
OUT: inactive

----------
Assay: NCI Yeast Anticancer Drug Screen. Data for the mlh1 rad18 strain (AID 175)
Settings: S. cerevisiae mlh1 rad18 strain growth inhibition; at 50.0 µM; active compounds read high
The panel holds about 79,000 compounds, 15% with a hit somewhere; the sample as a whole holds those more often.
measurement_type: growth inhibition (%)
Numbers only here, please. The scale is %.

Reference set (3 entries):
[[record]]
compound = "CCCC1CC=CCC12C(=O)NC(=O)NC2=O (centres undefined)"
numeric_readout = 12.9

[[record]]
compound = "CC(=O)[CH-]C(C)=O.CC(=O)[CH-]C(C)=O.CC(=O)[CH-]C(C)=O.[Ga+3]"
numeric_readout = 18.6

[[record]]
compound = "CC1=CC=NC(Cl)(Cl)N1"
numeric_readout = 20.4


Field: next compound
IN: // Input: CC(=O)O[C@H]1C(=O)[C@@]2(C)C(C(OC(=O)c3ccccc3)[C@]3(O)C[C@H](OC(=O)C(OC(=O)CCCC(=O)NCCCN(C)C)C(NC(=O)c4ccccc4)c4ccccc4)C(C)=C1C3(C)C)C1(OC(C)=O)COC1C[C@@H]2O (some centres undefined) . Output its growth inhibition only.
OUT: 7.35

----------
Test: NCI Yeast Anticancer Drug Screen. Data for the sgs1 mgt1 strain (AID 161);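 further: 0% = growth of cultures given vehicle only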
Conditions: S. cerevisiae sgs1 mgt1 strain, at 50.0 µM, active compounds read high
About 79,000 compounds went through this panel and 15% of them were active in at least one assay; those are over-represented in the sample as a whole.
measurement_type: growth inhibition (%)
Numeric answer only, unit % assumed.

Worked cases, growth inhibition given:
[[record]]
molecule = "O=C1NC(=O)C(CC(C(=O)C(=O)Nc2ccccc2Cl)C(=O)c2ccc3ccccc3c2)C(=O)N1 (stereo not given)"
measurement_type = "growth inhibition"
value_units = "%"
numeric_readout = -6.3

[[record]]
molecule = "Cc1cccc(N2C(=O)C3C(C2=O)C2(Cl)C(Cl)=C(Cl)C3(Cl)C2(Cl)Cl)c1C (stereo not given)"
measurement_type = "growth inhibition"
value_units = "%"
numeric_readout = 50.5

[[record]]
molecule = "NC(CCl)=NC1CN2CCC1CC2 (stereo not given)"
measurement_type = "growth inhibition"
value_units = "%"
numeric_readout = -13.2

[[record]]
molecule = "CCCCCCCN1CCC(C(=O)CC)(c2cccc(O)c2)CC1"
measurement_type = "growth inhibition"
value_units = "%"
numeric_readout = 33.5


// next entry
IN: State its growth inhibition: O=C(NCCN1CCOCC1)c1ccc2cc(C(=O)N3CC(CCl)c4ccc([N+](=O)[O-])cc43)[nH]c2c1 (stereo not given)
OUT: 88

----------
Experiment: NCI Yeast Anticancer Drug Screen. Data for the cln2 rad14 strain (AID 165);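 further: 0% = growth equal to vehicle treated cultures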
Settings: S. cerevisiae cln2 rad14 strain, at 50.0 µM
Compounds without any hit were thinned out: in the full panel of roughly 79,000, 15% have a hit. The source made the active and inactive calls. Rule as the data show it: active = growth inhibition above about 70%; inactive = the rest.
Assign a class; possible classes are class 1 for active, class 0 for inactive

[[record]]
compound = "Cl[C](Cl)(Cl)[Hg][C](Cl)(Cl)Cl"
assigned_label = "class 1"

[[record]]
compound = "C=C1CC/C=C(/C)C(=O)C(OC(C)=O)C2C1CC2(C)C (stereo not given)"
assigned_label = "class 1"

[[record]]
compound = "CCOC(=O)C1(O)N=C(c2ccccc2)c2ccccc2-n2cccc21 (stereo not given)"
assigned_label = "class 0"

[[record]]
compound = "C[C@]12Cc3cn4ncnc4nc3CC1CC[C@@H]1[C@@H]2CC[C@]2(C)C(O)CC[C@@H]12 (stereo not given in full)"
assigned_label = "class 1"


We now examine a further compound.
IN: What call does the record list for CN(C)CCNC(=O)c1cccc(COC(=O)Nc2ccc(N(CCCl)CCCl)cc2)c1[N+](=O)[O-] ?
OUT: class 0

----------
Experiment: NCI Yeast Anticancer Drug Screen. Data for the mlh1 rad18 strain (AID 175)
Settings: S. cerevisiae mlh1 rad18 strain growth inhibition; at 50.0 µM (retest, dose inferred, filed as 5.0); active compounds read high
The panel holds about 79,000 compounds, 15% with a hit somewhere; the sample as a whole holds those more often.
measurement_type: growth inhibition (%)
Form entry: value (%) — number only.

Check out these entries, answers already filled in.
[[record]]
molecule = "O=C(O)C(CSC(c1ccccc1)c1ccccc1)NC(=O)C(c1ccccc1)c1ccccc1 (centres undefined)"
measurement_type = "growth inhibition"
value_units = "%"
numeric_readout = 88

[[record]]
molecule = "CC1(C)N=C(N)N=C(N)N1c1ccc(OCC(=O)Nc2cccc(S(=O)(=O)F)c2)c(Cl)c1"
measurement_type = "growth inhibition"
value_units = "%"
numeric_readout = 65

[[record]]
molecule = "C/C1=C\\[C@H](C)C[C@H](C)OC(=O)C[C@H](c2ccc(O)cc2)NC(=O)[C@@H](Cc2c(Br)[nH]c3ccccc23)N(C)C(=O)[C@H](C)NC(=O)[C@@H](C)C1"
measurement_type = "growth inhibition"
value_units = "%"
numeric_readout = 98

[[record]]
molecule = "CC(=O)OC[C@]12C[C@H](OC(=O)CC(C)C)C(C)=C[C@H]1OC1[C@H](O)[C@@H](OC(C)=O)[C@@]2(C)[C@@]12CO2"
measurement_type = "growth inhibition"
value_units = "%"
numeric_readout = 98

[[record]]
molecule = "O=C1c2ccccc2C[CH]1[Hg][Cl] (centres undefined)"
measurement_type = "growth inhibition"
value_units = "%"
numeric_readout = 99

[[record]]
molecule = "CCC[CH2][Sn-]([CH2]CCC)([CH2]CCC)[O]c1cc(Cl)c(Cl)cc1Cl"
measurement_type = "growth inhibition"
value_units = "%"
numeric_readout = 94

[[record]]
molecule = "O=C1C=C(N2CC2)C(=O)C(N2CC2)=C1N1CC1"
measurement_type = "growth inhibition"
value_units = "%"
numeric_readout = 98

[[record]]
molecule = "C/C(=N\\N=C(/[Se])N1CCC(C)CC1)c1ccccn1"
measurement_type = "growth inhibition"
value_units = "%"
numeric_readout = 76


Now for a further molecule.
IN: // Input: CCCC[As](CCCC)SC1CCC2(C)C(=CCC3C4CCC(=O)C4(C)CCC32)C1 (centres undefined) . Output its growth inhibition only.
OUT: 88

----------
Assay: NCI Yeast Anticancer Drug Screen. Data for the rad50 strain (AID 155);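 further: 0% = growth of vehicle-only cultures of the same strain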
Conditions: S. cerevisiae rad50 strain growth inhibition; at 50.0 µM; active compounds read high
About 79,000 compounds went through this panel and 15% of them were active in at least one assay; those are over-represented in the sample as a whole.
Quick rule: growth inhibition of at least 20% means 1 (yes), below that means 0 (no).

Record excerpt, results attached:
[[record]]
compound = "O=C(Cl)c1cc([N+](=O)[O-])cc([N+](=O)[O-])c1"
assigned_label = "1 (yes)"

[[record]]
compound = "COc1ccc(CC2C(=O)NC(C)C(=O)N(C)C3C(=O)N(C)C(Cc4ccc(O)c(c4)Oc4ccc(cc4)C3O)C(=O)NC(C)C(=O)NC(C)C(=O)N2C)cc1 (stereo not drawn) (tested in a mixture with another compound)"
assigned_label = "1 (yes)"

[[record]]
compound = "CC1=NCCN=C(C)C1[N+](=O)[O-]"
assigned_label = "0 (no)"

[[record]]
compound = "O=C([O-])C(F)(F)C(F)(F)F.[C-]#[O+].[C-]#[O+].[C-]#[O+].[C-]#[O+].[C-]#[O+].[Mn]"
assigned_label = "0 (no)"

[[record]]
compound = "CN1CCC2CCCCN2CC1=O (stereo not drawn)"
assigned_label = "0 (no)"


Now for a further compound.
IN: For this compound, is measured growth inhibition 20% or higher? CC(=O)NC1=C(N(CCCl)CCCl)C(=O)c2ccccc2C1=O
OUT: 1 (yes)
